- System: CCRF-CEM leukemia
- assay info: NCI-60 one-dose screen, 48 h
- experimental setup: 10 µM unless noted
The panel holds about 83,000 compounds, 20% with a hit somewhere; the sample as a whole holds those more often. The source made the active and inactive calls. How the source made its calls: active means growth percent below 10; inactive means the rest.
Outcome codes: active, inactive

- COc1cc2ncnc(Nc3ccc(S(=O)(=O)Nc4nccs4)cc3)c2cc1OCCCN1CCCC1: inactive
- COc1cc(/C=C/c2cn[nH]c2-c2ccc(C)cc2)cc(OC)c1OC: inactive
- CC(C)(C)c1ccc(C(=O)N/N=C/c2ccc(O)cc2O)cc1: active
- COc1ccc2c(c1)CC[C@@H]1[C@@H]2CC[C@]2(C)C3C(=CC(COC(C)=O)C4C(=O)N(c5ccc(Cl)cc5)C(=O)C43)C[C@@H]12 (stereo not given in full): inactive
- CC(=O)Nc1sc2c(c1-c1nc3ccccc3s1)CNC2: inactive
- CCOC(=O)c1[nH]cc2c1CCc1sc(Nc3ccccn3)nc1-2: active
- O=S(=O)(Nc1ccc2ccccc2c1)c1ccc(-c2cnc(C3CC3)o2)cc1: inactive
- O=C(/C=C/c1ccccc1)c1ccc(-n2cc(CN3CCN(c4cc5c(cc4F)c(=O)c(C(=O)O)cn5C4CC4)CC3)nn2)cc1: inactive
- COc1cc(C=C2C(=O)NC(=S)NC2=O)cc(CN2CCCC2)c1O: inactive
- N#Cc1nn(-c2cc(=O)[nH]c3ccc(Br)cc23)c(N)c1C#N: active
- O=C1c2cccnc2C(=O)c2c1c(C(=O)OCCc1ccccn1)c1ccccn21: active
- COc1cc(-c2ccc(-c3ccc(C(=N)N)cc3)s2)cc(OC)c1OC: inactive
- Cc1ccc2nc(-c3ccc(C(=O)N/N=C/c4ccc([N+](=O)[O-])cc4)cc3)[nH]c2c1: inactive
- C=C1C(=O)O[C@@H]2C3C(=C(C)CC[C@@H]12)CC1O[C@]13C (stereo not given in full): inactive
- COc1ccccc1/C=C/C(=O)Nc1ccc(F)cc1: inactive
- Oc1ccc(-c2nc3ccc4[nH]ncc4c3c3c2CCCC3)c(F)c1: inactive
- O=C1CCC(C(=O)N/N=C/c2cc(F)ccc2F)N1 (stereo not given): inactive
- Nc1ccc(Br)cc1C(F)(F)F: inactive
- Oc1c(CN2CCC(N3CCOCC3)CC2)cc(Cc2cc(CN3CCC(N4CCOCC4)CC3)c(O)c3ncccc23)c2cccnc12: inactive
- Nc1c(Br)cc2c(c1Br)Cc1cc([N+](=O)[O-])ccc1-2: inactive
- c1csc(-c2cn3nc(-c4c[nH]c5ccccc45)sc3n2)c1: inactive
- Cc1nc2sc(C(=O)Nc3ccccn3)c(N)c2cc1C(C)O (stereo not given): inactive
- C#CCOc1cccc(Nc2ncnc3cc(NC(=O)CCl)ccc23)c1: active
- Cc1ncc(C(=O)Nc2ccc(CN3CCN(C)CC3)c(C(F)(F)F)c2)cc1C#Cc1cnc(N)c2ccc(C#N)cc12: active
- [N-]=[N+]=NCC1OC(n2cnc3c(NC(=O)Nc4ccccc4)ncnc32)C2OC(=O)CC12 (stereo not given): inactive
- Cc1c(C(C)(C)O)cn2ncnc(Oc3ccc(NC(=O)Nc4ccc(Cl)c(C(F)(F)F)c4)c(F)c3)c12: inactive
- COC(=O)c1c2c(c(C)[n+]([O-])c1C)C(=O)C(NCc1ccccc1)=CC2=O: inactive
- N=C(N)c1ccc(OCCSCCOc2ccc(C(=N)N)cc2)cc1: inactive
- CCOc1ccc(NC(=O)Nc2ccc(OCC)cc2)cc1: inactive
- COc1ccc(/C=N/Nc2c3ccccc3nc3ccccc23)cc1: inactive
- COc1ccc(/C=C(/C(=O)N2CCNCC2)c2cc(OC)c(OC)c(OC)c2)cc1O: inactive
- Cc1ccc(C(=O)c2ccc(CC(=O)N/N=C/c3cccc(O)c3O)n2C)cc1: inactive
- O=C(Nc1ccc(Oc2cccc(Cl)c2)c(Cl)c1)c1cccnn1: inactive
- Cc1nn(-c2ccc([N+](=O)[O-])cc2)c2ncnc(N/N=C/c3ccccc3O)c12: active
- COc1cccc(-c2cn3nc(-c4cn(C)c5ccccc45)sc3n2)c1: inactive
- CS(=O)(=O)Nc1cc(-c2ccc3ncnc(Nc4ccc(OCc5ccccn5)c(Cl)c4)c3c2)cnc1Cl: active
- CN(C)Cc1ccc(NC(=O)c2cncc(C#Cc3cnc(N)c4ncccc34)c2)cc1C(F)(F)F: active
- CC(C)(C)CC(C)(C)Nc1c(-c2c(O)c3ccccc3oc2=O)nc2sc3ccccc3n12: inactive
- CN(C)c1ccc(/C=N\NC(=O)c2ccc3nc(-c4ccc(Cl)cc4)[nH]c3c2)cc1: inactive
- CNC(=O)c1cc(Oc2ccc3c(c2)sc2nc(-c4ccc(Cl)c(C(F)(F)F)c4)cn23)ccn1: inactive

###

- Tested on: NCI-H460 lung
- assay info: NCI-60 one-dose screen, 48 h
- experimental setup: 10 µM unless noted
The panel holds about 83,000 compounds, 20% with a hit somewhere; the sample as a whole holds those more often. Active and inactive are the calls of the source. The calls were made as follows: active = growth percent below 10; inactive = the rest.
Outcome codes: true (1) for active, false (0) for inactive

• O=CCCCOCc1ccccc1 = false (0)
• CCCCCc1ccc(S(=O)(=O)Nc2cc(-c3csc(NC(C)=O)n3)ccc2N2CCN(C)CC2)cc1 = true (1)
• COc1ccc(C2C3=C(COC3=O)N(CCO)c3cc4c(cc32)OCO4)cc1OC (stereo unspecified) = false (0)
• C#CCOc1cccc(Nc2ncnc3c2ncn3C2CCN(C(=O)CCl)C2)c1 (stereo unspecified) = false (0)
• N#Cc1c(-c2ccc(Br)cc2)nc2c(N=Nc3ccc(S(N)(=O)=O)cc3)c(N)nn2c1N = false (0)
• c1cc(OCCN2CCCC2)ccc1CNc1ccc2nc(CCC3CCCCC3)[nH]c2c1 = false (0)
• CC/C(=C(/c1ccc(O)cc1)c1ccc(OCCN2CCCCC2)cc1)c1ccc(OC)cc1 = false (0)
• O=c1cc(-c2ccccc2)nc(SCc2nc3cc(Cl)c(Cl)cc3[nH]2)[nH]1 = false (0)
• CC1=C(Cl)C(=O)c2cc(C)ccc2C1=O = false (0)
• CCOc1ccc(NC(=O)Nc2ccc(OCC)cc2)cc1 = false (0)
• Oc1c(CN2CCC(N3CCOCC3)CC2)cc(Cc2cc(CN3CCC(N4CCOCC4)CC3)c(O)c3ncccc23)c2cccnc12 = false (0)
• O=C1Nc2ccccc2/C1=N/N1C(=O)CN(CCCl)C1=O = false (0)
• CNC(=O)c1cc(Oc2ccc3c(c2)sc2nc(-c4ccc(Cl)c(C(F)(F)F)c4)cn23)ccn1 = false (0)
• COc1cc(O)c2c(=O)c3c(CC=C(C)C)cc(OC)c(O)c3oc2c1 = false (0)
• COc1ccc(Cl)cc1Nc1nc(C(F)(F)F)ccc1C(=O)N/N=C/c1ccc([N+](=O)[O-])cc1 = true (1)
• COc1ccc(-c2cc(C(=O)N3N=C(c4ccc(N)cc4)CC3c3ccc(Cl)cc3)c3cc(OC)ccc3n2)cc1 (stereo unspecified) = false (0)
• C#Cc1cccc(Nc2ncnc3cc(NC(=O)CCl)ccc23)c1 = true (1)
• COc1cc(-c2nccc3[nH]c(-c4cccc5[nH]ccc45)nc23)cc(OC)c1OC = true (1)
• O=CN1N=C(c2cccc(Nc3ccnc4cc(Cl)ccc34)c2)CC1c1ccc(Cl)cc1 (stereo unspecified) = false (0)
• COc1cc(/C=C/c2cn[nH]c2-c2ccc(C)cc2)cc(OC)c1OC = false (0)
• CCOC(=O)CC[C@H](NC(=O)c1ccc(N(C)Cc2cnc3nc(N)nc(N)c3n2)c2ccccc12)C(=O)OCC = false (0)
• CC(C)(C)OC(=O)CN1CCc2c(sc3ncnc(N4CCN(c5ccc(F)cc5)CC4)c23)C1 = false (0)
• COc1cc2ncnc(Nc3ccc(F)c(Cl)c3)c2cc1OCC(=O)N1CCOCC1 = false (0)
• O=C(N/N=C/c1ccc(Cl)cc1)c1ccc(NC(=O)c2ccccn2)cc1 = true (1)
• O=c1c2ccccc2n(C[C@H]2CO2)c2ccccc12 = true (1)
• N=C(N)c1ccc(OCCSCCOc2ccc(C(=N)N)cc2)cc1 = false (0)
• N#C/C(=C\c1ccc(-c2cccc(Cl)c2)o1)C(=O)Nc1ncc(Cc2ccc(Cl)cc2)s1 = false (0)
• CN(C)CCn1c(=O)c2ccccc2n2nc3ccccc3c12 = false (0)
• CCn1cc(C(=O)N/N=C/c2ccccc2)c(=O)c2cc(F)c(N3CCNC(C)C3)c(F)c21 (stereo unspecified) = true (1)
• CCCn1c(=S)sc2c(NNC(C)=O)nc(C)nc21 = false (0)
• O=C1/C(=C/c2c[nH]c(=O)[nH]c2=O)SC(=S)N1Cc1ccccc1 = false (0)
• CN(C)c1ccc(/C=C2\C=C(c3nc4ccccc4s3)OC2=O)cc1 = false (0)
• COC(=O)c1c2c(c(C)[n+]([O-])c1C)C(=O)C(NCc1ccccc1)=CC2=O = false (0)
• Nc1c(Cl)cc(/C=C2\C=Cc3ccccc32)cc1Cl = false (0)
• COc1ccc(N/N=C/c2cn(-c3ccc(C(=O)O)cc3)nc2-c2cc3ccccc3oc2=O)cc1 = false (0)
• Cc1ccc2cnc(N)c(C#Cc3cc(C(=O)Nc4ccc(CN5CCN(C)CC5)c(C(F)(F)F)c4)cnc3C)c2c1 = true (1)
• Cn1c(C#N)ccc1-c1ccc(F)c(NC(=O)c2ccc(F)cc2)c1 = false (0)
• CC1=C2CC/C(C)=C/CC[C@]3(C)O[C@H]3CC/C(C)=C/[C@H]2OC1 = false (0)
• O=C(NCCCCO)c1cncnc1Nc1ccc2c(ccn2Cc2cccc(F)c2)c1 = false (0)
• Cc1ccc(C)c2c1sc1nc(N3CCOCC3)c(C#N)c(=O)n12 = false (0)
• O=C1CCC(C(=O)N/N=C/c2cc(F)ccc2F)N1 (stereo unspecified) = false (0)
